# assay_overview: Salt/co-crystal screening: 38 acids, eight solvent systems, solids analysed by XRPD
# Format: physicochemical
# test_conditions: Ethanol; acid/freebase charge 1:1 unless label says 2:1; stirred at RT, else 5° C. slurry, anti-solvent addition or evaporation (footnote marks)
experimental_readout: Solid obtained in salt screening (XRPD), solvent A Ethanol

[
  {
    "molecule": "O=C(O)CC(=O)O [Malonic acid]",
    "result": "gel*"
  },
  {
    "molecule": "O=C(O)[C@H](O)[C@@H](O)[C@H](O)[C@H](O)CO [Gluconic acid]",
    "result": "amorphous*"
  },
  {
    "molecule": "O=C(O)CCC(=O)O [Succnic acid]",
    "result": "gel*"
  },
  {
    "molecule": "O=C(O)/C=C/C(=O)O [Fumaric acid]",
    "result": "gel*"
  },
  {
    "molecule": "O=C(O)c1ccc2ccccc2c1O [1-hydroxy-2-naphthoic acid]",
    "result": "amorphous*"
  },
  {
    "molecule": "CCCCCC(=O)O [Hexanoic acid]",
    "result": "gel"
  },
  {
    "molecule": "O=C(O)CC(O)(CC(=O)O)C(=O)O [Citric acid]",
    "result": "gel*"
  },
  {
    "molecule": "O=S(=O)(O)O [H2SO4]",
    "result": "gel*"
  },
  {
    "molecule": "CCCCCCCCCCCCCCCC(=O)O [Palmitic acid]",
    "result": "gel*"
  },
  {
    "molecule": "COc1cc(C(=O)O)ccc1O [Vanillic acid]",
    "result": "amorphous"
  },
  {
    "molecule": "O=C(O)CCCCC(=O)O [Adipic acid]",
    "result": "gel*"
  },
  {
    "molecule": "O=C(O)c1cccnc1 [Nicotinic acid]",
    "result": "gel*"
  },
  {
    "molecule": "O=C(O)C[C@H](O)C(=O)O [L-malic acid]",
    "result": "amorphous*"
  },
  {
    "molecule": "CCC(=O)O [Propionic acid]",
    "result": "gel*"
  },
  {
    "molecule": "Nc1ccc(C(=O)O)c(O)c1 [4-Aminosalicylic acid]",
    "result": "gel*"
  },
  {
    "molecule": "O=C1NS(=O)(=O)c2ccccc21 [Saccharin]",
    "result": "amorphous*"
  },
  {
    "molecule": "C[C@H](O)C(=O)O [L-lactic acid]",
    "result": "amorphous*"
  },
  {
    "molecule": "O=C(O)/C=C/c1ccccc1 [trans Cinnamic acid]",
    "result": "amorphous"
  },
  {
    "molecule": "O=C(O)c1ccccc1O [Salicyclic acid]",
    "result": "gel*"
  },
  {
    "molecule": "O=C(O)c1cc(O)ccc1O [Gentisic acid]",
    "result": "gel*"
  },
  {
    "molecule": "O=C(O)CNC(=O)c1ccccc1 [Hippuric acid]",
    "result": "gel*"
  },
  {
    "molecule": "COc1cc(C=O)ccc1O [Vanillin]",
    "result": "gel*"
  },
  {
    "molecule": "O=C(O)CCCC(=O)O [Glutaric acid]",
    "result": "gel*"
  },
  {
    "molecule": "O=C(O)[C@H](O)c1ccccc1 [R-mandelic acid]",
    "result": "amorphous*"
  },
  {
    "molecule": "O=C(O)c1ccccc1 [Benzoic acid]",
    "result": "gel*"
  },
  {
    "molecule": "CS(=O)(=O)O [Methane sulfonic acid]",
    "result": "gel*"
  },
  {
    "molecule": "O=C(O)/C=C\\C(=O)O [Maleic acid]",
    "result": "gel*"
  }
]
